- assay procedure: Cytotoxicity assay (MTT), 293T-ACE2
- Type: cell-based
- measurement parameters: human, tested concentrations given in μg/ml, read-out: CC50 (median cytotoxic concentration)
quantity: CC50 at 24 h (mg/L)
One number for each entry, in mg/L.

Query block: So what's the measured CC50 at 24 h for this one? O=C1O[C@H]2[C@@H]3OC(=O)c4cc(O)c(O)c(O)c4-c4c(O)c(O)c5oc(=O)c6c(c(O)c(O)c7oc(=O)c4c5c76)-c4c(cc(O)c(O)c4O)C(=O)OC[C@H]3OC(O)[C@@H]2OC(=O)c2cc(O)c(O)c(O)c2-c2c1cc(O)c(O)c2O (mixture of isomers) [Punicalagin, punicalagin]
Result block: 606

====

- assay procedure: Cytotoxicity assay (MTT), VeroE6
- Type: cell-based
- measurement parameters: African green monkey, tested concentrations given in μg/ml, read-out: CC50 (median cytotoxic concentration)
quantity: CC50 at 24 h

Query block: So what's the measured CC50 at 24 h for this one? O=C1O[C@H]2[C@@H]3OC(=O)c4cc(O)c(O)c(O)c4-c4c(O)c(O)c5oc(=O)c6c(c(O)c(O)c7oc(=O)c4c5c76)-c4c(cc(O)c(O)c4O)C(=O)OC[C@H]3OC(O)[C@@H]2OC(=O)c2cc(O)c(O)c(O)c2-c2c1cc(O)c(O)c2O (mixture of isomers)
Result block: 84.7 µg/mL

====

- assay procedure: Cytotoxicity assay (MTT), NCI-H460
- Assay type: cell-based
- measurement parameters: human, tested concentrations given in μg/ml, read-out: CC50 (median cytotoxic concentration)
- Method: The human embryonic kidney cells 293T stably expressing recombinant human ACE2 (293T-ACE2) were maintained in DMEM containing 10% FBS, 1% P/S, and 200 μg/μl hygromycin. […] […]. The medium was removed, and viable cells were detected with MTT assay (Cyrusbioscience, Taiwan), which was read by absorbance at 570 nm by an ELISA reader. […]
quantity: CC50 at 24 h (µg/mL)
Numbers only, in µg/mL.

Query block: So what's the measured CC50 at 24 h for this one? O=C1O[C@H]2[C@@H]3OC(=O)c4cc(O)c(O)c(O)c4-c4c(O)c(O)c5oc(=O)c6c(c(O)c(O)c7oc(=O)c4c5c76)-c4c(cc(O)c(O)c4O)C(=O)OC[C@H]3OC(O)[C@@H]2OC(=O)c2cc(O)c(O)c(O)c2-c2c1cc(O)c(O)c2O (mixture of isomers)
Result block: 88.4
